- target_or_system: IMP-1 (Serratia marcescens, UniProt P52699)
- Sequence (P52699 whole entry, looked up): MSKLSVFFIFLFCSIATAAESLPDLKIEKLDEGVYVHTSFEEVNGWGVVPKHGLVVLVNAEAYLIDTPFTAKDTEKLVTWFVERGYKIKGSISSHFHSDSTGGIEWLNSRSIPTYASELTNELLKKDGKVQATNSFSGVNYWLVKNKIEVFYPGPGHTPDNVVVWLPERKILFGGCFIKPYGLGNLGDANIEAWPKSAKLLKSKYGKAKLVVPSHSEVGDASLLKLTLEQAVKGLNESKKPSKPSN
- method: biochemical
- Assay type: biochemical
- recorded_conditions: fluorescence assay with CCF2-FA substrate; read-out: IMP-1 IC50
pIC50: −log10 of the molar value.
Below, each entry is listed alongside its reported pIC50.

| item_smiles | target_or_system | pIC50 |
| --- | --- | --- |
| Cn1ccnc1-c1cccc(S(N)(=O)=O)c1-c1nn[nH]n1 | IMP-1 (Serratia marcescens, UniProt P52699) | 5.62 |
| CS(=O)(=O)Nc1cccc(-c2cccc(S(N)(=O)=O)c2-c2nn[nH]n2)c1 | IMP-1 (Serratia marcescens, UniProt P52699) | 7.17 |
| NCCCCN1CCN(c2ccc(C(F)(F)F)c(S(N)(=O)=O)c2-c2nnn[nH]2)CC1 | IMP-1 (Serratia marcescens, UniProt P52699) | 6.88 |
| NS(=O)(=O)c1cccc(-c2cnn(Cc3ccncc3)c2)c1-c1nn[nH]n1 | IMP-1 (Serratia marcescens, UniProt P52699) | 6.84 |
| NS(=O)(=O)c1cccc(-c2ccc(-c3nnn[nH]3)cc2)c1-c1nn[nH]n1 | IMP-1 (Serratia marcescens, UniProt P52699) | 7.31 |
| N=C(N)N1CCC2(CC1)CCN(c1ccc(C(F)(F)F)c(S(N)(=O)=O)c1-c1nnn[nH]1)CC2 | IMP-1 (Serratia marcescens, UniProt P52699) | 8.65 |
| CN(c1ccnc(S(N)(=O)=O)c1-c1nnn[nH]1)C1CCCCC1 | IMP-1 (Serratia marcescens, UniProt P52699) | 5.12 |

The values you see were collected from patent US9708336B2.
